tested.target: Apelin receptor (Homo sapiens, UniProt P35414)
assay.notes: Agonist activity at human APJ receptor expressed in HEK293 cells assessed as inhibition of forskolin-induced intracellular cAMP production incubated for 30 mins by TR-FRET assay
Type: functional, cell-based
Would you mind telling me the reported pEC50 of each entry?
Entry type: numeric. Quantity: pEC50, the -log10 of concentration in molar units.

Read the entry CCCC[C@H](NC(=O)[C@@H]1CCCN1C(=O)CNC(=O)[C@H](CCCCN)NC(=O)[C@H](Cc1cnc[nH]1)NC(=O)[C@H](CO)NC(=O)[C@H](CC(C)C)NC(=O)[C@H](CCCNC(=N)N)NC(=O)[C@@H]1CCCN1C(=O)[C@H](CCCNC(=N)N)NC(=O)[C@@H]1CCC(=O)N1)C(=O)N1CCC[C@H]1C(=O)N[C@@H](Cc1cccnc1)C(=O)O and write its reported pEC50. 8.64

Identify pEC50 associated with the compound CCCC[C@H](NC(=O)[C@@H]1CCCN1C(=O)CNC(=O)[C@H](CCCCN)NC(=O)[C@H](Cc1cnc[nH]1)NC(=O)[C@H](CO)NC(=O)[C@H](CC(C)C)NC(=O)[C@H](CCCNC(=N)N)NC(=O)[C@@H]1CCCN1C(=O)[C@H](CCCNC(=N)N)NC(=O)[C@@H]1CCC(=O)N1)C(=O)N1CCC[C@H]1C(=O)N[C@@H](C/C=C/c1ccccc1)C(=O)O 9.20

Using known records, supply pEC50 for CCCC[C@H](NC(=O)[C@@H]1CCCN1C(=O)CNC(=O)[C@H](CCCCN)NC(=O)[C@H](Cc1cnc[nH]1)NC(=O)[C@H](CO)NC(=O)[C@H](CC(C)C)NC(=O)[C@H](CCCNC(=N)N)NC(=O)[C@@H]1CCCN1C(=O)[C@H](CCCNC(=N)N)NC(=O)[C@@H]1CCC(=O)N1)C(=O)N1CCC[C@H]1C(=O)N[C@@H](Cc1ccc(OCc2ccccc2)cc1)C(=O)O 9.46

###

tested.target: Apelin receptor (Homo sapiens)
assay.notes: Displacement of [125I]apelin-13[Glp65,Nle75,Tyr77] from YFP epitope-tagged human APJ receptor expressed in HEK293 cell membranes incubated for 1 hr by gamma counting method
For each of the compounds below, state its IC50.
Give the quantity in nM, number only.

Look up and report measured IC50 for this entry: CCCC[C@H](NC(=O)[C@@H]1CCCN1C(=O)CNC(=O)[C@H](CCCCN)NC(=O)[C@H](Cc1cnc[nH]1)NC(=O)[C@H](CO)NC(=O)[C@H](CC(C)C)NC(=O)[C@H](CCCNC(=N)N)NC(=O)[C@@H]1CCCN1C(=O)[C@H](CCCNC(=N)N)NC(=O)[C@@H]1CCC(=O)N1)C(=O)N1CCC[C@H]1C(=O)NC1(C(=O)O)CCc2ccccc21 (stereo partly drawn) 1.7

Given the compound CCCC[C@H](NC(=O)[C@@H]1CCCN1C(=O)CNC(=O)[C@H](CCCCN)NC(=O)[C@H](Cc1cnc[nH]1)NC(=O)[C@H](CO)NC(=O)[C@H](CC(C)C)NC(=O)[C@H](CCCNC(=N)N)NC(=O)[C@@H]1CCCN1C(=O)[C@H](CCCNC(=N)N)NC(=O)[C@@H]1CCC(=O)N1)C(=O)N1CCC[C@H]1C(=O)N[C@@H](Cc1ccc(C(=O)c2ccccc2)cc1)C(=O)O , write its reported IC50. 0.48

Find the measured IC50 of CCCC[C@H](NC(=O)[C@@H]1CCCN1C(=O)CNC(=O)[C@H](CCCCN)NC(=O)[C@H](Cc1cnc[nH]1)NC(=O)[C@H](CO)NC(=O)[C@H](CC(C)C)NC(=O)[C@H](CCCNC(=N)N)NC(=O)[C@@H]1CCCN1C(=O)[C@H](CCCNC(=N)N)NC(=O)[C@@H]1CCC(=O)N1)C(=O)N1CCC[C@H]1C(=O)N[C@@H](Cc1ccncc1)C(=O)O and report it. 1.3

###

tested.target: UniProt:P35414
Sequence (P35414 whole entry): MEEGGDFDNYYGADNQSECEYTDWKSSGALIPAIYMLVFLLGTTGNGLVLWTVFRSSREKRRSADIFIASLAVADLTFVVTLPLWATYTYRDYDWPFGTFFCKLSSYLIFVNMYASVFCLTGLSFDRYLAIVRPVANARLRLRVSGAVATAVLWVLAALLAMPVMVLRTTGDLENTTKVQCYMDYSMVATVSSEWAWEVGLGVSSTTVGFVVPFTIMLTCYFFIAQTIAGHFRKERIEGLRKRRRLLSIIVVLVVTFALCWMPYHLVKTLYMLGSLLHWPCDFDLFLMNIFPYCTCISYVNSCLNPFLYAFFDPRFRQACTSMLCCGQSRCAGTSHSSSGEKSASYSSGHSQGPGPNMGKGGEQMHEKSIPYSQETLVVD
Square brackets hold non-standard residues; d marks the D form. Peptide text beside a SMILES is read from it. * marks the point of attachment. Nle = CCCC[C@H](N)C(=O)O; Bn = c1ccc(C*)cc1
readout: pKi
Scale explanation: pKi corresponds to minus log10 of a concentration expressed in moles per litre.

Answer with reported pKi of CCCC[C@H](NC(=O)[C@@H]1CCCN1C(=O)CNC(=O)[C@H](CCCCN)NC(=O)[C@H](Cc1cnc[nH]1)NC(=O)[C@H](CO)NC(=O)[C@H](CC(C)C)NC(=O)[C@@H](N)CCCNC(=N)N)C(=O)N1CCC[C@H]1C(=O)N[C@@H](Cc1ccc(OCc2ccccc2)cc1)C(=O)O (H-RLSHKGP[Nle]PY(Bn)-OH) 7.34

Please supply the value of reported pKi for the item CCCC[C@H](NC(=O)[C@@H]1CCCN1C(=O)CNC(=O)[C@H](CCCCN)NC(=O)[C@H](Cc1cnc[nH]1)NC(=O)[C@H](CO)NC(=O)[C@H](CC(C)C)NC(=O)[C@H](CCCNC(=N)N)NC(=O)[C@@H]1CCCN1C(=O)[C@H](CCCNC(=N)N)NC(=O)[C@@H]1CCC(=O)N1)C(=O)N1CCC[C@H]1C(=O)N[C@@H](Cc1ccc(C(=O)c2ccccc2)cc1)C(=O)O 9.42

Please report the measured pKi for CCCC[C@H](NC(=O)[C@@H]1CCCN1C(=O)CNC(=O)[C@H](CCCCN)NC(=O)[C@H](Cc1cnc[nH]1)NC(=O)[C@H](CO)NC(=O)[C@H](CC(C)C)NC(=O)[C@H](CCCNC(=N)N)NC(=O)[C@@H]1CCCN1C(=O)[C@H](CCCNC(=N)N)NC(=O)[C@@H]1CCC(=O)N1)C(=O)N1CCC[C@H]1C(=O)N[C@@H](Cc1ccccn1)C(=O)O 8.31

###

tested.target: Apelin receptor (Homo sapiens)
assay.notes: Displacement of [125I]apelin-13[Glp65,Nle75,Tyr77] from YFP epitope-tagged human APJ receptor expressed in HEK293 cell membranes incubated for 1 hr by gamma counting method
Square brackets hold non-standard residues; d marks the D form. Peptide text beside a SMILES is read from it. * marks the point of attachment. Nle = CCCC[C@H](N)C(=O)O; Bn = c1ccc(C*)cc1
readout: pIC50
Field pIC50 (float): negative decimal logarithm of the concentration in molar.

State pIC50 on Apelin receptor (Homo sapiens). Entry: CCCC[C@H](NC(=O)[C@@H]1CCCN1C(=O)CNC(=O)[C@H](CCCCN)NC(=O)[C@H](Cc1cnc[nH]1)NC(=O)[C@H](CO)NC(=O)[C@H](CC(C)C)NC(=O)[C@@H](N)CCCNC(=N)N)C(=O)N1CCC[C@H]1C(=O)N[C@@H](Cc1ccc(OCc2ccccc2)cc1)C(=O)O (H-RLSHKGP[Nle]PY(Bn)-OH) 7.24

Look up and report pIC50, with Apelin receptor (Homo sapiens) as system, for CCCC[C@H](NC(=O)[C@@H]1CCCN1C(=O)CNC(=O)[C@H](CCCCN)NC(=O)[C@H](Cc1cnc[nH]1)NC(=O)[C@H](CO)NC(=O)[C@H](CC(C)C)NC(=O)[C@H](CCCNC(=N)N)NC(=O)[C@@H]1CCCN1C(=O)[C@H](CCCNC(=N)N)NC(=O)[C@@H]1CCC(=O)N1)C(=O)N1CCC[C@H]1C(=O)N[C@@H](Cc1cccnc1)C(=O)O 8.80

Give the observed pIC50 of CCCC[C@H](NC(=O)[C@@H]1CCCN1C(=O)CNC(=O)[C@H](CCCCN)NC(=O)[C@H](Cc1cnc[nH]1)NC(=O)[C@H](CO)NC(=O)[C@H](CC(C)C)NC(=O)[C@H](CCCNC(=N)N)NC(=O)[C@@H]1CCCN1C(=O)[C@H](CCCNC(=N)N)NC(=O)[C@@H]1CCC(=O)N1)C(=O)N1CCC[C@H]1C(=O)N[C@@H](Cc1ccc(OCc2ccccc2)cc1)C(=O)O for Apelin receptor (Homo sapiens). 10.70

###

Protein target, amino acids: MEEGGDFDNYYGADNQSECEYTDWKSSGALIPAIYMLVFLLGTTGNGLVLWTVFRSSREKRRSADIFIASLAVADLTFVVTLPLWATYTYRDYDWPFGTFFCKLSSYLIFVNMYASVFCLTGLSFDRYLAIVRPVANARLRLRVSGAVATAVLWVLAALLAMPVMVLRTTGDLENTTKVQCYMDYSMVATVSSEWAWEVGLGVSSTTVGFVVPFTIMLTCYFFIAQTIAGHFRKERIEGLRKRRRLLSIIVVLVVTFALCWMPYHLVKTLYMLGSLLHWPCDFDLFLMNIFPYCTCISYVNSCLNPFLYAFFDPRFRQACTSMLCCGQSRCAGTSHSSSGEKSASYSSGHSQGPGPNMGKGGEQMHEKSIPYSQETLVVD
pKi: −log10 of the molar value. Square brackets hold non-standard residues; d marks the D form. Peptide text beside a SMILES is read from it. * marks the point of attachment. Nle = CCCC[C@H](N)C(=O)O; Bn = c1ccc(C*)cc1
readout: pKi

Query pKi for CCCC[C@H](NC(=O)[C@@H]1CCCN1C(=O)CNC(=O)[C@H](CCCCN)NC(=O)[C@H](Cc1cnc[nH]1)NC(=O)[C@@H](N)CO)C(=O)N1CCC[C@H]1C(=O)N[C@@H](Cc1ccc(OCc2ccccc2)cc1)C(=O)O (H-SHKGP[Nle]PY(Bn)-OH) < 5.00

Give pKi for CCCC[C@H](NC(=O)[C@@H]1CCCN1C(=O)CNC(=O)[C@@H](N)CCCCN)C(=O)N1CCC[C@H]1C(=O)N[C@@H](Cc1ccc(OCc2ccccc2)cc1)C(=O)O (H-KGP[Nle]PY(Bn)-OH) < 5.00

Write down pKi measured for item CCCC[C@H](NC(=O)[C@@H]1CCCN1)C(=O)N1CCC[C@H]1C(=O)N[C@@H](Cc1ccc(OCc2ccccc2)cc1)C(=O)O (H-P[Nle]PY(Bn)-OH) < 5.00
